// provenance: patent US20240182536A1

Molecular target: T1, IL-18 receptors on HEK-Blue IL-18 reporter cells (UniProt Q13478 19-541; O95256 20-599, limits assumed); note: unit not given here
T1 sequence (looked up) 1: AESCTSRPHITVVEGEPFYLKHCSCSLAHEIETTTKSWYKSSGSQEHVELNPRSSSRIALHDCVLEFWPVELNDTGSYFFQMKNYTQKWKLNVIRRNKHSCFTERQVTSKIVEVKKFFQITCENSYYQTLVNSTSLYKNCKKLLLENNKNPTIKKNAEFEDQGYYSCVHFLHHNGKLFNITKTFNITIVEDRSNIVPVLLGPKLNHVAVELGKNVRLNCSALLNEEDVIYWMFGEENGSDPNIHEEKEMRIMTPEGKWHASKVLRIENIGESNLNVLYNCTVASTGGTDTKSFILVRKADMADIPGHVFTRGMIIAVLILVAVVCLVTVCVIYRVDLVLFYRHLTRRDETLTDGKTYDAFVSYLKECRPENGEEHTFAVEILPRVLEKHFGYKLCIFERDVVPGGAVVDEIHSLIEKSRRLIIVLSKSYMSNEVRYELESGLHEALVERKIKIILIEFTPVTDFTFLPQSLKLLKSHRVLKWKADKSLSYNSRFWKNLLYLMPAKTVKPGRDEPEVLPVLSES
T1 sequence (looked up) 2: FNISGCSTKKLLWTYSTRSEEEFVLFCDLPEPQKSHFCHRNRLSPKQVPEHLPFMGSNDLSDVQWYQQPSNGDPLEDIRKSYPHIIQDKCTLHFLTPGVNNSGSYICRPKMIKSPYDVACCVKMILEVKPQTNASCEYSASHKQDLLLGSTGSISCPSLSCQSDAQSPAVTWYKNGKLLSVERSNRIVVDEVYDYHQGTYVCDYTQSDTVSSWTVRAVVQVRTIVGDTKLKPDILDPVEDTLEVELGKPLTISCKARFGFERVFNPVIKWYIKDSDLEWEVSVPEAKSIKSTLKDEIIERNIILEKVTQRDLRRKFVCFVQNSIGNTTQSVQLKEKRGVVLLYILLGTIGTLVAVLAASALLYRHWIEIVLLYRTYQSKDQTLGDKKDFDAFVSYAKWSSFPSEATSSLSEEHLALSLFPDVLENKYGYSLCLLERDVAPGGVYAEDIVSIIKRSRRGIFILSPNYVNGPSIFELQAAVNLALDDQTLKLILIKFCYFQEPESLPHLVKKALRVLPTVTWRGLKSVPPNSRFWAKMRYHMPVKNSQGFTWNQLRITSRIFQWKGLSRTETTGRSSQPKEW
Experiment: cell-based or functional assay
result type: HEK-Blue activity, No BP, DF-10000
Lab note: jot the number down without any unit.

Exam item: Form field: reported HEK-Blue activity, No BP, DF-10000 of IL-18 variant K53D, S55L (ligand) YFGKLESKLSVIRNLNDQVLFIDQGNRPLFEDMTDSDMRDNAPRTIFIISMYDDLQPRGMAVTISVKSEKISTLSSENKIISFKEMNPPDNIKDTKSDIIFFQRSVPGHDNKMQFESSSYEGYFLASEKERDLFKLILKKEDELGDRSIMFTVQNED
Marked response: 0.11

Exam item: For the binder shown here, IL-18 variant T34S, S36L, D37E, D40Y, N41M, K53T, S55K, P107K, H109Q (ligand) YFGKLESKLSVIRNLNDQVLFIDQGNRPLFEDMSDLEMRYMAPRTIFIISMYTDKQPRGMAVTISVKSEKISTLSSENKIISFKEMNPPDNIKDTKSDIIFFQRSVKGQDNKMQFESSSYEGYFLASEKERDLFKLILKKEDELGDRSIMFTVQNED , give the reported HEK-Blue activity, No BP, DF-10000.
Marked response: 0.11

Exam item: Need HEK-Blue activity, No BP, DF-10000, item IL-18 variant K53H, S55Q (ligand) YFGKLESKLSVIRNLNDQVLFIDQGNRPLFEDMTDSDMRDNAPRTIFIISMYHDQQPRGMAVTISVKSEKISTLSSENKIISFKEMNPPDNIKDTKSDIIFFQRSVPGHDNKMQFESSSYEGYFLASEKERDLFKLILKKEDELGDRSIMFTVQNED
Marked response: 0.14

Exam item: HEK-Blue activity, No BP, DF-10000 for IL-18 variant T34E, S36P, D40A, N41G, K53T, S55R (ligand) YFGKLESKLSVIRNLNDQVLFIDQGNRPLFEDMEDPDMRAGAPRTIFIISMYTDRQPRGMAVTISVKSEKISTLSSENKIISFKEMNPPDNIKDTKSDIIFFQRSVPGHDNKMQFESSSYEGYFLASEKERDLFKLILKKEDELGDRSIMFTVQNED ?
Marked response: 0.09

Exam item: Fill blank: measured HEK-Blue activity, No BP, DF-10000 of the binder IL-18 variant L15I, K53H, S55M (ligand) YFGKLESKLSVIRNINDQVLFIDQGNRPLFEDMTDSDMRDNAPRTIFIISMYHDMQPRGMAVTISVKSEKISTLSSENKIISFKEMNPPDNIKDTKSDIIFFQRSVPGHDNKMQFESSSYEGYFLASEKERDLFKLILKKEDELGDRSIMFTVQNED is ____.
Marked response: 0.11

Exam item: Tell me the measured HEK-Blue activity, No BP, DF-10000 of IL-18 variant S36F, N41E, K53W (ligand) YFGKLESKLSVIRNLNDQVLFIDQGNRPLFEDMTDFDMRDEAPRTIFIISMYWDSQPRGMAVTISVKSEKISTLSSENKIISFKEMNPPDNIKDTKSDIIFFQRSVPGHDNKMQFESSSYEGYFLASEKERDLFKLILKKEDELGDRSIMFTVQNED , please.
Marked response: 0.09

Exam item: GET /values?readout=HEK-Blue activity, No BP, DF-10000&item= IL-18 variant K53V, S55Q (ligand) YFGKLESKLSVIRNLNDQVLFIDQGNRPLFEDMTDSDMRDNAPRTIFIISMYVDQQPRGMAVTISVKSEKISTLSSENKIISFKEMNPPDNIKDTKSDIIFFQRSVPGHDNKMQFESSSYEGYFLASEKERDLFKLILKKEDELGDRSIMFTVQNED
Marked response: 0.2
